Data credit: ChEMBL document CHEMBL5512638

Target: Cannabinoid receptor 2 (Homo sapiens)
Sequence (P34972 whole entry): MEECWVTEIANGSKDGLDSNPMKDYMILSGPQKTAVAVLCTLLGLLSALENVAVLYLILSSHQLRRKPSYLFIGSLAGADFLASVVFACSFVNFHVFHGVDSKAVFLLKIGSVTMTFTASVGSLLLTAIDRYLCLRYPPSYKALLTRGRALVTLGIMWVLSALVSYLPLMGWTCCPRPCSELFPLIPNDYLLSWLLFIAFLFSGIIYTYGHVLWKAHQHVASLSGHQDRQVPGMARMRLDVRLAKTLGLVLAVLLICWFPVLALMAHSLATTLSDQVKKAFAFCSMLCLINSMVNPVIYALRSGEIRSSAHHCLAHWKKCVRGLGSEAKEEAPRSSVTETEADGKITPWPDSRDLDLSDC
Test: Partial agonist activity at human CB2 receptor expressed in CHO-K1 cells assessed as reduction in NKH-477 induced cAMP production by chemiluminescence based cAMP hunter assay
Type: functional, cell-based
QUANTITY: EC50 (µM)
Could you give me the number in µM? Just the number is fine.

Exercise: What does the data say about its EC50? Entry: O=C(Nc1cccc2ccccc12)c1cccn1Cc1ccc(F)cc1
Key: 6.11

* * *

Test: Chemical stability of compound in phosphate buffer at pH 7.4 assessed as compound remaining at 5 uM measured after 0.5 hrs by UHPLC-MS analysis
Type: physicochemical
Settings: read-out: Stability
QUANTITY: remaining at 0.5 h, 5 µM (%)
Could you give me the number in %? Just the number is fine.

1. O=C(NC12CC3CC(CC(C3)C1)C2)c1cccn1Cc1ccc(F)cc1; 98.6

Exercise: What does the data say about its remaining at 0.5 h, 5 µM? Entry: O=C(Nc1cccc2ccccc12)c1cccn1Cc1ccc(F)cc1
Key: 101
